Tested on: hES cells
Experiment: Alkaline phosphatase staining screen of LOPAC1280 library (primary screen and secondary dose titration)
Format: cell-based, human
Conditions: Homo sapiens; secondary screen, dilution series, 48 hours with compound, AP staining, StemPro hESC SFM, 96-well; read-out: [Concentration] minimal effective concentration negatively impacting hES cell cultures
The entries below are paired with their reported minimal effective concentration.

Please review the entries below; each comes with its answer.
Req: minimal effective concentration lookup needed for C/C=C(/C)C(=O)O[C@H]1C(C)=C2[C@H]([C@@H]1OC(=O)CCCCCCC)[C@@](C)(OC(C)=O)C[C@H](OC(=O)CCC)[C@@]1(O)[C@H]2OC(=O)[C@@]1(C)O , thanks.
Resp: < 0.1 µM

Req: minimal effective concentration lookup needed for O=C(/C=C/c1ccc(O)c(O)c1)OCCc1ccccc1 , thanks.
Resp: < 0.1 µM

Req: minimal effective concentration lookup needed for C[C@@H]1O[C@@H](O[C@H]2C[C@@H](O)[C@]3(CO)[C@H]4[C@H](O)C[C@]5(C)[C@@H](C6=CC(=O)OC6)CC[C@]5(O)[C@@H]4CC[C@]3(O)C2)[C@H](O)[C@H](O)[C@H]1O , thanks.
Resp: < 0.1 µM

Now look at this entry.
Req: minimal effective concentration lookup needed for COc1cc([C@@H]2c3cc4c(cc3[C@H](O)[C@H]3COC(=O)[C@H]23)OCO4)cc(OC)c1OC , thanks.
Resp: < 0.1 µM
